// EC50 lookup, one value per entry
Target: Protein RecA (Mycobacterium tuberculosis, UniProt P9WHJ3)
Sequence (P9WHJ3 whole entry): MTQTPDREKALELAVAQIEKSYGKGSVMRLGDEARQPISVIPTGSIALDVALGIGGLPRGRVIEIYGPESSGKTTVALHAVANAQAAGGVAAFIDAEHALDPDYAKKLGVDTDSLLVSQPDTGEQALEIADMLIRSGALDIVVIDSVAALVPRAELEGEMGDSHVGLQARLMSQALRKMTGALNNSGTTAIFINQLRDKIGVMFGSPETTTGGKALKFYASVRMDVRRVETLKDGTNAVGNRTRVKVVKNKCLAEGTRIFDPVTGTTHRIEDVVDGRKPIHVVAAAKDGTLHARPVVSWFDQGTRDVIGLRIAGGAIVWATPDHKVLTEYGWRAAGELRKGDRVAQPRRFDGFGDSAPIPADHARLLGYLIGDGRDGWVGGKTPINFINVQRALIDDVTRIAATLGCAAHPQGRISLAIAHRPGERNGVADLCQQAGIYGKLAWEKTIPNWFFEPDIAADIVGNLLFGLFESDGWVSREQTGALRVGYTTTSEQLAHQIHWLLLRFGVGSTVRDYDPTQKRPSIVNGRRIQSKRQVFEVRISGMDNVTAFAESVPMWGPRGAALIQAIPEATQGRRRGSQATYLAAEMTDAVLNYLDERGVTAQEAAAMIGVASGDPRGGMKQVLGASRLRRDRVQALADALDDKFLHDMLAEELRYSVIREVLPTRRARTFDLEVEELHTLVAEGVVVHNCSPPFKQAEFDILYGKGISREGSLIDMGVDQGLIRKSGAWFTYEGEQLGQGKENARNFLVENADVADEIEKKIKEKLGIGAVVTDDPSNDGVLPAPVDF
Assay: Fluorescence Cell-Free Homogeneous Dose Retest to Identify Inhibitors of RecA-Intein Splicing Activity. [Related pubchem assays (depositor defined):AID2097, AID2223, AID489010, AID492950]
Type: functional
Calls of active or inactive are those of the source. No stated cut-off is given here; in the data, actives have a measured EC50 and inactives only a lower limit.

• CCn1c(SCC(=O)Nc2nc(-c3ccc(C)cc3)cs2)nnc1-c1ccccc1O = 174 µM (active)
• C[n+]1c2ccccc2nc2ccc(NCCO)cc21 = 2.38 µM (active)
• Clc1ncnc2scc(C3COc4ccccc4O3)c12 (configuration not stated) = 3.97 µM (active)
• CCCCc1ccc(NC(=O)CSCc2cc(=O)[nH][nH]2)cc1 = 1.82 µM (active)
• O=[N+]([O-])c1cc(/C=N/c2cccc3c(O)cccc23)ccc1Cl = 8.76 µM (active)

Specify measured EC50 for Cc1n[nH]c2c1C1(CCC3(CC1)OCCO3)C(C#N)=C(N)O2 . > 380 µM (inactive)

Look up and report measured EC50 for this entry: COC1(OC)C(/C=C/c2ccc(Cl)cc2)C(C#N)(C#N)C1(OC)OC (configuration not stated) 2.45 µM (active)
